- Assayed System: hMC1R (Homo sapiens (Human))
- Sequence (Q01726 whole entry): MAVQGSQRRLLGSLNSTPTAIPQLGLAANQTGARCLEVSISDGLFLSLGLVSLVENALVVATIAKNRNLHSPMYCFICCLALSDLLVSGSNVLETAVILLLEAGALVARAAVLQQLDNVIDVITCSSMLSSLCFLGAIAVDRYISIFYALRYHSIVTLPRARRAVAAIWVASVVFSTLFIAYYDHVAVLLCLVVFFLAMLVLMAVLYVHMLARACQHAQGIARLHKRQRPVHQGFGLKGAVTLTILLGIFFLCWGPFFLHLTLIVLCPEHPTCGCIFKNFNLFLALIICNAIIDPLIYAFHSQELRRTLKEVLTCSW
- Protocol Summary: Transactivation test: melanocortin receptors (pCRE-Luc luciferase reporter), hMC1R
- Experimental Conditions: HEK293 transfected with pCRE-Luc and hMC1R; products tested alone (agonist), 6 h incubation; % activity vs NDP-MSH 10 nM; IA: inactive
- Method: Transactivation Test: Melanocortin Receptors HEK293 lines are transfected with the pCRE-Luc and hMC1R, hMC3R, hMC4R or hMC5R vectors. The cells are cultured at 37° C., 5% CO2, in DMEM medium supplemented with 10% of foetal calf serum. […] The products and the reference ligand (NDP-MSH) are added the following day, and the plates are again incubated for 6 h at 37° C., 5% CO2. After the addition of lysis buffer containing luciferin, the plates are read on a Top-Count instrument. […]
pEC50: −log10 of the molar value.
Metric: pEC50

Please review the following examples before continuing.
CCCCOC1(c2ccccc2)CN(C(=O)[C@@H](Cc2ccc(Cl)cc2Cl)NC(=O)CCc2c[nH]cn2)C1 [Compound 19]: 5.70
CCCCCC1(c2ccc(F)cc2)CN(C(=O)[C@@H](Cc2ccc(OC)cc2)NC(=O)CCc2c[nH]cn2)C1 [Compound 38]: 6.60
CCCCCC1(c2ccccc2)CN(C(=O)[C@@H](Cc2ccc(F)c(F)c2)NC(=O)CCc2c[nH]cn2)C1 [Compound 53]: 6.00

a = CCCCOC1(c2ccccc2C)CN(C(=O)[C@@H](Cc2ccc(OC)cc2)NC(=O)CCc2c[nH]cn2)C1 [Compound 15]
b = CCCCOC1(c2ccccc2)CN(C(=O)[C@@H](CC2CCCCC2)NC(=O)CCc2c[nH]cn2)C1 [Compound 18]
c = CCCCOC1(c2ccccc2C)CN(C(=O)[C@@H](Cc2ccc(OC)cc2)NC(=O)CCc2cncn2C)C1 [Compound 67]
*Q* List items by pEC50 in falling order. Reply format: the labels, ordered as requested.
*A* a, c, b

----------
- Assayed System: hMC4R (Homo sapiens (Human), UniProt P32245)
- Sequence (P32245 whole entry): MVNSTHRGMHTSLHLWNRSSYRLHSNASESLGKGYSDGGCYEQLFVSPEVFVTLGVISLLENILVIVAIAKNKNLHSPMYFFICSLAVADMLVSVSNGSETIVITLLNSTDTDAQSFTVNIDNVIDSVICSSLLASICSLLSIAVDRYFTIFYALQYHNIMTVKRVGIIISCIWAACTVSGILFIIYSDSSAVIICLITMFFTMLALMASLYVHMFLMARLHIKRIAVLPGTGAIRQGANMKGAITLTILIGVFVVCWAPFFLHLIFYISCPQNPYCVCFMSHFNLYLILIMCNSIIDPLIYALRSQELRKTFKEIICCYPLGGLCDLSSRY
- Protocol Summary: Transactivation test: melanocortin receptors (pCRE-Luc luciferase reporter), hMC4R
- Experimental Conditions: HEK293 transfected with pCRE-Luc and hMC4R; products tested alone (agonist), 6 h incubation; % activity vs NDP-MSH 10 nM; IA: inactive
Metric: EC50 (µM)

Some entries whose results are on file:
CCCCOC1(c2ccc(F)cc2)CN(C(=O)[C@@H](Cc2ccc(OC)cc2)NC(=O)CCc2c[nH]cn2)C1 [Compound 23]: 1
CCCCCC1(c2ccccc2)CN(C(=O)[C@@H](Cc2ccc(F)c(F)c2)NC(=O)CCc2c[nH]cn2)C1 [Compound 53]: 4

1 = CCCCCC1(c2ccccc2)CN(C(=O)[C@@H](Cc2ccc(OC)cc2)NC(=O)CCc2cncn2C)C1 [Compound 64]
2 = CCCCOC1(c2ccccc2C)CN(C(=O)C(NC(=O)CCc2c[nH]cn2)C(O)c2ccc(OC)cc2)C1 (stereo not shown) [Compound 73]
3 = COc1ccc(C[C@H](NC(=O)[C@H](Cc2c[nH]cn2)NC(=O)c2ccccc2)C(=O)N2CC(O)(c3ccccc3C)C2)cc1 [Compound 4]
4 = CCCCCC1(c2ccccc2)CN(C(=O)[C@@H](Cc2ccc(Cl)cc2)NC(=O)CCc2c[nH]cn2)C1 [Compound 45]
5 = CCCCCC1(c2ccccc2)CN(C(=O)[C@@H](Cc2ccc(Cl)c(Cl)c2)NC(=O)CCc2c[nH]cn2)C1 [Compound 52]
*Q* # rank_down: sort by EC50, max first I would appreciate it if you listed the labels in the requested order.
*A* 2, 3, 4, 1, 5

FYI, the data here is from patent US9630949B2.
